# Assay details: Cytotoxicity counterscreen for inhibitors of SARS-CoV-2 cell entry (AID 1645845); note: nearly all actives have a fitted effect of over 50% in size
# Condition notes: cell viability (SARS-CoV-2 entry assay cells); series mostly up to 57.1 µM
Results filed as inconclusive are left out. Calls of active or inactive are those of the source. Calls come from the whole dose curve.
Outcome codes: YES for active, NO for inactive

{"Compound": "OCCOc1ccccc1", "Answer label": "NO"}
{"Compound": "NC(=O)OCC(COC(N)=O)c1ccccc1", "Answer label": "NO"}
{"Compound": "COc1ccccc1OCC(O)CN1CCN(CC(=O)Nc2c(C)cccc2C)CC1 (stereo not given)", "Answer label": "NO"}
{"Compound": "NS(=O)(=O)c1cc2c(cc1Cl)NC=NS2(=O)=O", "Answer label": "NO"}
{"Compound": "CN(C)C(=O)C(CCN1CCC(O)(c2ccc(Cl)cc2)CC1)(c1ccccc1)c1ccccc1", "Answer label": "NO"}
{"Compound": "CCc1nc(N)nc(N)c1-c1ccc(Cl)cc1", "Answer label": "YES"}
{"Compound": "OCCN(CCO)c1nc(N2CCCCC2)c2nc(N(CCO)CCO)nc(N3CCCCC3)c2n1", "Answer label": "NO"}
{"Compound": "CS(=O)(=O)CCNCc1ccc(-c2ccc3ncnc(Nc4ccc(OCc5cccc(F)c5)c(Cl)c4)c3c2)o1", "Answer label": "NO"}
{"Compound": "Cc1ncc([N+](=O)[O-])n1CCO", "Answer label": "NO"}
{"Compound": "Cc1cc(SCc2sc(-c3ccc(C(F)(F)F)c(F)c3)nc2C)ccc1OCC(=O)O", "Answer label": "NO"}
{"Compound": "CN1C(=O)CC(C)(c2ccccc2)C1=O (stereo not given)", "Answer label": "NO"}
{"Compound": "O=NN(CCCl)C(=O)NCCCl", "Answer label": "NO"}
{"Compound": "CNS(=O)(=O)Cc1ccc2[nH]cc(CCN(C)C)c2c1", "Answer label": "NO"}
{"Compound": "O=C1N=C(O)CN1/N=C/c1ccc(-c2ccc([N+](=O)[O-])cc2)o1", "Answer label": "NO"}
{"Compound": "CN(C)[C@@H]1C(=O)C(C(N)=O)=C(O)[C@@]2(O)C(=O)C3=C(O)c4c(O)cccc4[C@@](C)(O)[C@H]3C[C@@H]12", "Answer label": "NO"}
{"Compound": "CC(C)(C)NC(=O)[C@H]1CC[C@H]2[C@@H]3CC[C@H]4NC(=O)C=C[C@]4(C)[C@H]3CC[C@]12C", "Answer label": "NO"}
{"Compound": "COc1cc(Cc2cnc(N)nc2N)cc(OC)c1OC", "Answer label": "NO"}
{"Compound": "CC1=NS(=O)(=O)c2cc(Cl)ccc2N1", "Answer label": "NO"}
{"Compound": "CC(C)CC(N(C)C)C1(c2ccc(Cl)cc2)CCC1 (stereo not given)", "Answer label": "NO"}
{"Compound": "COC(=O)Nc1nc2ccc(C(=O)c3cccs3)cc2[nH]1", "Answer label": "NO"}
{"Compound": "NNc1nncc2ccccc12", "Answer label": "NO"}
{"Compound": "C[n+]1ccccc1/C=N/O", "Answer label": "NO"}
{"Compound": "CN1CCC[C@@H]1Cc1c[nH]c2ccc(CCS(=O)(=O)c3ccccc3)cc12", "Answer label": "NO"}
{"Compound": "Cc1ccsc1C(=CCCN1CCC[C@@H](C(=O)O)C1)c1sccc1C", "Answer label": "NO"}
{"Compound": "Cc1nc(-c2ccc(OCC(C)C)c(C#N)c2)sc1C(=O)O", "Answer label": "NO"}
{"Compound": "C#Cc1cccc(Nc2ncnc3cc(OCCOC)c(OCCOC)cc23)c1", "Answer label": "NO"}
{"Compound": "O=C1c2cccc3c2[C@H](CCC3)CN1[C@@H]1CN2CCC1CC2", "Answer label": "NO"}
{"Compound": "CCOC(=O)[C@H](CCc1ccccc1)N[C@@H](C)C(=O)N1Cc2cc(OC)c(OC)cc2C[C@H]1C(=O)O", "Answer label": "NO"}
{"Compound": "CC(C)NC[C@@H](O)COc1ccc(CC(N)=O)cc1", "Answer label": "NO"}
{"Compound": "Clc1ccc2c(c1)C(N1CCNCC1)=Nc1ccccc1O2", "Answer label": "NO"}
